tested target: Alpha-1-antitrypsin [E366K] (Homo sapiens, UniProt P01009, E366K)
Sequence (P01009 25-418 E366K limits assumed): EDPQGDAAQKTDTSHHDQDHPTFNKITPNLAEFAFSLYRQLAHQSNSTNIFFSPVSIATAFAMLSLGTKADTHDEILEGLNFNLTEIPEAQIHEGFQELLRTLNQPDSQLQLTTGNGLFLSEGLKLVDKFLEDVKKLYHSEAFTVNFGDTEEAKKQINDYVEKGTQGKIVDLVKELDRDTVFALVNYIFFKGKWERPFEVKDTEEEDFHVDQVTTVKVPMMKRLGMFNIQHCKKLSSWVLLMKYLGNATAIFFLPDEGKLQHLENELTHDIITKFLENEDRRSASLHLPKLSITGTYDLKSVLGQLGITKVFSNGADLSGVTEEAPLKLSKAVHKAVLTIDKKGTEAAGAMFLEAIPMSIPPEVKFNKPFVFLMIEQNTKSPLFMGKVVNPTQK
assay protocol: Biochemical Assay (Z-AAT Elastase Activity Assay)

[
  {
    "molecule": "Cc1cc(-n2c(C(C)C)c(-c3ccc(C(=O)O)cc3C)c3cc(O)ccc32)ccc1F [US20230339915, Compound 170]",
    "IC50": "< 2 µM"
  },
  {
    "molecule": "Cc1cc(-n2c(C(C)C)c([C@H]3C[C@@H]3C(=O)O)c3cc(O)c(F)cc32)ccc1F [US20230339915, Compound 129]",
    "IC50": "> 5 µM"
  },
  {
    "molecule": "Cc1cc(-n2c(C(C)C)c(-c3ccc(C(=O)O)cc3)c3cc(O)ccc32)ccc1F [US20230339915, Compound 167]",
    "IC50": "< 2 µM"
  },
  {
    "molecule": "Cc1cc(-n2c(C(C)C)c(C3CC3(C)C(=O)O)c3cc(O)ccc32)ccc1F (centres undefined) [US20230339915, Compound 130]",
    "IC50": "> 5 µM"
  }
]
